Every entry's value here was drawn from patent US9513294B2.

Assay: Absorbance and fluorescence emission spectra (SpectraMax M2)
Format: physicochemical
Conditions: MKCA compound library; absorbance maximum
Value Kind: λmax Absorp. (nm)

CC(C)Cc1cn(-c2ccc3n2[B-](F)(F)[N+]2=C(N(C)Cc4ccccc4)C=CC2=C3c2ccc(NC(=O)CCl)cc2)nn1 ... 465
CCCc1cn(-c2ccc3n2[B-](F)(F)[N+]2=C(NCc4ccccc4C)C=CC2=C3c2ccc(NC(=O)CCl)cc2)nn1 ... 465
COc1ccc(OC)c(CNC2=[N+]3C(=C(c4ccc(NC(=O)CCl)cc4)c4ccc(-n5cc(CO)nn5)n4[B-]3(F)F)C=C2)c1 ... 464
CCCC(C)c1cn(-c2ccc3n2[B-](F)(F)[N+]2=C(N4CCc5ccccc5C4)C=CC2=C3c2ccc(NC(=O)CCl)cc2)nn1 (centres unmarked) ... 469
CCCC(C)c1cn(-c2ccc3n2[B-](F)(F)[N+]2=C(N(C)Cc4ccccc4)C=CC2=C3c2ccc(NC(=O)CCl)cc2)nn1 (centres unmarked) ... 466
CC(C)Cc1cn(-c2ccc3n2[B-](F)(F)[N+]2=C(NCc4cc(F)cc(F)c4)C=CC2=C3c2ccc(NC(=O)CCl)cc2)nn1 ... 468
CCOc1ccccc1CNC1=[N+]2C(=C(c3ccc(NC(=O)CCl)cc3)c3ccc(-n4cc(CN(C)Cc5ccccc5)nn4)n3[B-]2(F)F)C=C1 ... 462
COc1ccc(OC)c(CNC2=[N+]3C(=C(c4ccc(NC(=O)CCl)cc4)c4ccc(-n5cc(CC(C)C)nn5)n4[B-]3(F)F)C=C2)c1 ... 465
CN(Cc1ccccc1)C1=[N+]2C(=C(c3ccc(NC(=O)CCl)cc3)c3ccc(-n4cc(C5CC5)nn4)n3[B-]2(F)F)C=C1 ... 466
CN(Cc1ccccc1)Cc1cn(-c2ccc3n2[B-](F)(F)[N+]2=C(N(C)Cc4ccccc4)C=CC2=C3c2ccc(NC(=O)CCl)cc2)nn1 ... 462
CCCCCC(O)c1cn(-c2ccc3n2[B-](F)(F)[N+]2=C(NCc4cc(OC)ccc4OC)C=CC2=C3c2ccc(NC(=O)CCl)cc2)nn1 (centres unmarked) ... 465
